Molecular target: Regulator of G-protein signaling 4 (Rattus norvegicus) (UniProt P49799)
Sequence (P49799 whole entry, looked up): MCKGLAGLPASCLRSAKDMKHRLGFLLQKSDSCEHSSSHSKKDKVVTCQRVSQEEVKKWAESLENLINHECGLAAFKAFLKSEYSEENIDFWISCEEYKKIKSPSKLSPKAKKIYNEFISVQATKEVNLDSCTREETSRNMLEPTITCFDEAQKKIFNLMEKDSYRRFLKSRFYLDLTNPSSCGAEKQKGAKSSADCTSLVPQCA
Assay: RGS4-stimulated Galphai1 GTP hydrolysis blockers – biochemical, rat RGS4, steady-state, receptor-independent, malachite green, confirmation (AID 588552)
Details: RGS4-stimulated Galphai1 GTPase, malachite green phosphate absorbance
Active and inactive are the calls of the source.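 How the source made its calls: active means compounds whose IC50 for blocking RGS4-driven GTP breakdown by the G-protein falls below a set limit; inactive means IC50 above a set limit.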
Tick one outcome: active, inactive

Recorded results for 3 molecules are shown here.
- MOLECULE: "N[C@@H](Cc1cc(Br)c(O)c(Br)c1)C(=O)O"
  GROUP: "inactive"
- MOLECULE: "COc1ccc(-c2csc(NC3OC(=O)c4c3ccc(OC)c4OC)n2)cc1OC (stereo not given)"
  GROUP: "inactive"
- MOLECULE: "CN(C)c1ccc(C(C[N+](=O)[O-])c2c(N)n(C)c(=O)n(C)c2=O)c(F)c1C#N (stereo not given)"
  GROUP: "inactive"

QUERY: For `Cc1c(NC(=O)c2coc(=O)c(Br)c2)c(=O)n(-c2ccccc2)n1C` , what call appears in the results of this test?
RESULT: inactive

QUERY: For `COc1ccc(NC(=O)/C(C#N)=C\c2ccc(Sc3nncn3C)c([N+](=O)[O-])c2)cc1` , what call appears in the results of this test?
RESULT: inactive

QUERY: For `O=C/C=C/c1c(-c2ccccc2)cc2oc3ccccc3cc1-2` , what call appears in the results of this test?
RESULT: inactive

QUERY: For `NC(=O)N/N=C/c1c(Sc2nnnn2-c2ccccc2)nc2ccccn2c1=O` , what call appears in the results of this test?
RESULT: active

QUERY: For `CCOCCCNC(=O)/C(C#N)=C\c1ccc(Cl)c([N+](=O)[O-])c1` , what call appears in the results of this test?
RESULT: inactive

QUERY: For `Cc1ccccc1OCc1nnc(SCC(=O)Nc2ccc3c(c2)oc2ccccc23)n1C` , what call appears in the results of this test?
RESULT: inactive

QUERY: For `O=C(O)c1ccc(/C=C2\COc3ccccc3C2=O)cc1` , what call appears in the results of this test?
RESULT: active

QUERY: For `O=C1NC(=S)N(c2ccccc2F)C(=O)/C1=C\c1cccs1` , what call appears in the results of this test?
RESULT: active

QUERY: For `CC(C)(C)c1ccc(Cn2nnc3c(=O)[nH]c(C4CCN(C(=O)Cc5cccs5)CC4)nc32)cc1` , what call appears in the results of this test?
RESULT: inactive

QUERY: For COc1ccc2cc(C3C(C#N)=C(N)OC(C)=C3C(C)=O)c(Cl)nc2c1 (stereo not given) , what call appears in the results of this test?
RESULT: inactive

QUERY: For `COC(=O)CSc1[nH]c2cc(C)ccc2c1[N+](=O)[O-]` , what call appears in the results of this test?
RESULT: inactive

QUERY: For `CCOC(=O)C1=C(O)/C(=C\c2cccc(OC)c2)N=C1C` , what call appears in the results of this test?
RESULT: inactive

QUERY: For `Cc1cccc(N2C(=O)/C(=C/c3ccc(C(=O)O)cc3)c3ccccc3C2=O)c1` , what call appears in the results of this test?
RESULT: active

QUERY: For COc1ccc(NC(=O)/C(Cl)=C(/Cl)S(=O)Cc2ccccc2)cn1 (stereo not given) , what call appears in the results of this test?
RESULT: active

QUERY: For `O=C(/C=C/c1ccc([N+](=O)[O-])cc1)c1ccco1` , what call appears in the results of this test?
RESULT: inactive

QUERY: For `N#C/C(=C/c1ccc(Cl)c([N+](=O)[O-])c1)c1ccccn1` , what call appears in the results of this test?
RESULT: inactive

QUERY: For `O=C1/C(=C\c2ccc(Cl)cc2Cl)N2CCC1CC2` , what call appears in the results of this test?
RESULT: inactive

QUERY: For `Cc1ccc(/C=C2\C(=O)NC(=S)N(c3ccc(F)cc3)C2=O)s1` , what call appears in the results of this test?
RESULT: active

QUERY: For `Cc1ccc(CNC(=O)c2cn(C3CCCCC3)c(=O)c3c2c2ccccc2n3C)o1` , what call appears in the results of this test?
RESULT: inactive

QUERY: For `O=C(N/N=C/c1cc([N+](=O)[O-])ccc1O)NC12CC3CC(CC(C3)C1)C2` , what call appears in the results of this test?
RESULT: inactive

QUERY: For `Cc1nc2c(=O)n(C)c(=O)n(C)c2nc1Cl` , what call appears in the results of this test?
RESULT: inactive

* * *

Target: Regulator of G-protein signaling 4 (Rattus norvegicus)
Test: RGS4-stimulated Galphai1 GTP hydrolysis blockers – biochemical, rat RGS4, steady-state, receptor-independent, malachite green, confirmation (AID 588552)
Settings: RGS4-stimulated Galphai1 GTPase, malachite green phosphate absorbance
Activity calls are given as the source filed them.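 How the source made its calls: active means compounds whose IC50 for blocking RGS4-driven GTP breakdown by the G-protein falls below a set limit; inactive means IC50 above a set limit.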
Tick one outcome: True (active), False (inactive)

Recorded results for 10 compounds are shown here.
- COMPOUND: "Cc1ccc(C(C2=C(O)CC(C)(C)CC2=O)C2C(=O)CC(C)(C)CC2=O)o1 (stereo not drawn)"
  MEASURED_ON: "Regulator of G-protein signaling 4 (Rattus norvegicus)"
  GROUP: "False"
- COMPOUND: "CN1CCc2cc(O)cc3c2[C@H]1Cc1ccc(O)c(O)c1-3"
  MEASURED_ON: "Regulator of G-protein signaling 4 (Rattus norvegicus)"
  GROUP: "True"
- COMPOUND: "O=C(O)c1ccc(/C=C/C(=O)c2ccc3c(c2)OCCCO3)cc1"
  MEASURED_ON: "Regulator of G-protein signaling 4 (Rattus norvegicus)"
  GROUP: "True"
- COMPOUND: "CC1=NN(c2ccc(C(=O)O)cc2)C(=O)/C1=C\\c1ccc(OC(=O)c2cccs2)cc1"
  MEASURED_ON: "Regulator of G-protein signaling 4 (Rattus norvegicus)"
  GROUP: "True"
- COMPOUND: "CN1C(=O)S/C(=C\\c2ccccc2OCc2ccc(C(=O)O)cc2)C1=O"
  MEASURED_ON: "Regulator of G-protein signaling 4 (Rattus norvegicus)"
  GROUP: "True"
- COMPOUND: "O=C1/C(=C/c2ccncc2)CCC/C1=C\\c1ccncc1"
  MEASURED_ON: "Regulator of G-protein signaling 4 (Rattus norvegicus)"
  GROUP: "True"
- COMPOUND: "CC(C)OP(=O)(OC(C)C)/C(C=O)=N\\Nc1ccc([N+](=O)[O-])cc1"
  MEASURED_ON: "Regulator of G-protein signaling 4 (Rattus norvegicus)"
  GROUP: "False"
- COMPOUND: "O=C(CCNc1ccc(F)cc1)c1ccco1"
  MEASURED_ON: "Regulator of G-protein signaling 4 (Rattus norvegicus)"
  GROUP: "False"
- COMPOUND: "CN(C)C(=O)COc1ccc(C(=O)/C=C/c2cccnc2)cc1"
  MEASURED_ON: "Regulator of G-protein signaling 4 (Rattus norvegicus)"
  GROUP: "True"
- COMPOUND: "O=C1N=c2ccccc2=C1c1c(O)n(-c2cccc(F)c2)[nH]c1=O"
  MEASURED_ON: "Regulator of G-protein signaling 4 (Rattus norvegicus)"
  GROUP: "True"

QUERY: For `CN1C/C(=C/c2ccncc2)C(=O)/C(=C/c2ccncc2)C1` , what call appears in the results of this test?
RESULT: True

QUERY: For `O=C(O)c1ccc2c(c1)C(=O)N(c1cccc(C(=O)/C=C/c3ccccc3)c1)C2=O` , what call appears in the results of this test?
RESULT: True

QUERY: For `CN(C)c1oc(-c2ccccc2[N+](=O)[O-])nc1C#N` , what call appears in the results of this test?
RESULT: True

QUERY: For O=C1C=C(NC2=CC3OC(c4ccccc4)OCC3OC2=O)CCC1 (stereo not drawn) , what call appears in the results of this test?
RESULT: True

QUERY: For `COC(=O)CSc1[nH]c2ccccc2c1[N+](=O)[O-]` , what call appears in the results of this test?
RESULT: True

QUERY: For Cc1ccc(/C=C/C(=O)N2CC(C)CC(C)C2)o1 (stereo not drawn) , what call appears in the results of this test?
RESULT: True

QUERY: For `O=[N+]([O-])c1ccc(O)c(/C=N/NC(=S)Nc2ccc(Cl)cc2Cl)c1` , what call appears in the results of this test?
RESULT: False

QUERY: For `COc1ccc(OC)c(N2C(=O)NC(=O)/C(=C/c3ccc([N+](=O)[O-])s3)C2=O)c1` , what call appears in the results of this test?
RESULT: True

QUERY: For `Oc1c(Cl)cc(Cl)c2c1NCCC2` , what call appears in the results of this test?
RESULT: True

QUERY: For `O=C1/C(=C\c2ccc(Cl)c(Cl)c2)N2CCC1CC2` , what call appears in the results of this test?
RESULT: False

QUERY: For `Cn1c(OCc2ccco2)nc2c1c(=O)n(Cc1ccc(Cl)c(Cl)c1)c(=O)n2C` , what call appears in the results of this test?
RESULT: False

QUERY: For `COc1cc2c(cc1O)C(SC)=NC(C)(C)C2` , what call appears in the results of this test?
RESULT: True

QUERY: For `Cc1csc(NC(=O)COCC(=O)O)c1-c1nc2ccccc2s1` , what call appears in the results of this test?
RESULT: False
